# STUDY SYSTEM: wild-type RT (Human immunodeficiency virus type 1 group M subtype B, UniProt P04585)
# Construct: Wild-type and mutant RT genes of these clones were subcloned into a bacterial expression vector (pKRT2); made in house; host or cells: E. coli
# ASSAY METHOD TEXT: Heteropolymeric RNA template RT hybridization assay, inhibition of wild-type RT (Example 2)
# Assay type: biochemical, HIV-1
# CONDITION LABEL: 10 cases, 0.5 mM dNTPs, read-out: Minimum (IC50)
MEASUREMENT TYPE: pIC50
// pIC50 is dimensionless: -log10 of concentration (M)

Record request: pIC50 value, item Nc1ncnc2c1ncn2[C@H]1CC[C@@H](COP(=O)(O)OP(=O)(O)OP(=O)(O)O)O1 [ddATP] 5.51

----------
# STUDY SYSTEM: wild-type RT (Human immunodeficiency virus type 1 group M subtype B, UniProt P04585)
# Construct: Wild-type and mutant RT genes of these clones were subcloned into a bacterial expression vector (pKRT2); made in house; host or cells: E. coli
# ASSAY METHOD TEXT: Heteropolymeric RNA template RT hybridization assay, inhibition of wild-type RT (Example 2)
# Assay type: biochemical, HIV-1
# CONDITION LABEL: 10 cases, 0.5 mM dNTPs, read-out: Maximum (IC50)
MEASUREMENT TYPE: IC50
Answer as a quantity: numeral, then unit.

Record request: IC50 value, item Nc1ncnc2c1ncn2[C@H]1CC[C@@H](COP(=O)(O)OP(=O)(O)OP(=O)(O)O)O1 8.7 µM

----------
# STUDY SYSTEM: wild-type RT (Human immunodeficiency virus type 1 group M subtype B, UniProt P04585)
# Construct: Wild-type and mutant RT genes of these clones were subcloned into a bacterial expression vector (pKRT2); made in house; host or cells: E. coli
# ASSAY METHOD TEXT: Heteropolymeric RNA template RT hybridization assay, inhibition of wild-type RT (Example 2)
# Format: biochemical, HIV-1
# CONDITION LABEL: mean of 10 cases, 0.5 mM dNTPs, wild-type vs mutant p<0.005, read-out: Mean (IC50)
MEASUREMENT TYPE: pIC50
// pIC50 is dimensionless: -log10 of concentration (M)

Record request: pIC50 value, item Nc1ncnc2c1ncn2[C@H]1CC[C@@H](COP(=O)(O)OP(=O)(O)OP(=O)(O)O)O1 5.17

----------
# STUDY SYSTEM: codon 74 (ddI-resistant) mutant RT (Human immunodeficiency virus type 1 group M subtype B, UniProt P04585, L661V)
# Construct: Wild-type and mutant RT genes of these clones were subcloned into a bacterial expression vector (pKRT2); made in house; host or cells: E. coli
# ASSAY METHOD TEXT: Heteropolymeric RNA template RT hybridization assay, inhibition of codon 74 mutant RT (Example 2)
# Assay type: biochemical, HIV-1
# CONDITION LABEL: Mutant 74 RT; mean of 5 cases; 0.5 mM dNTPs; wild-type vs mutant p<0.005; read-out: Mean (IC50)
MEASUREMENT TYPE: IC50
Answer as a quantity: numeral, then unit.

Record request: IC50 value, item Nc1ncnc2c1ncn2[C@H]1CC[C@@H](COP(=O)(O)OP(=O)(O)OP(=O)(O)O)O1 16.9 µM
